- ASSAY DETAILS: yeast display, Sf9 membrane polyspecificity reagent, FACS + sequencing; frameworks hold sequencing errors
PROPERTY: polyreactivity (PSR sort gate)

Example sequences with recorded polyreactivity (PSR sort gate):
| ORDERED RESIDUES | polyreactivity (PSR sort gate) |
| --- | --- |
| QVQLQESGGGLVQAGGSLSCAASGNIFYIKYMGWYRQEPGKEREFVASIAHGTSTYYADSVKGLFTISRDNAKNTVYLQMNSLKPVDTAVYYCAAVTQSYYSYYYWGQGTQVTVSS | low polyreactivity |
| QVQLVESGGGLVQAGGSLRLSCAASGIIFRGNVMGWSRQAPGKERELVAAISGSGGRTYYADSVKGRFTISRDNAKNTVYLQMNSLKPEDTAVYYCNADKAIRYDYWGQGTQVTVSS | high polyreactivity |
| QVQLVESGGGLVQAGGSLRLSCAASGRIFYFNAMGWYRQAPGQERELVADISSGGRTNYADSVKGRFTISRDNAKNTVYLQMNSLKPEDTAVYYCNAEPYTSSGGYRGYDFDSWGQGTQVTVSS | low polyreactivity |
| QVQLVESGGGLVQAGGSLRLSCAASGYTFGYYAMGWYRQAPGKERELVAAINWSGGSTYYADSVKGRFTISRDNAKNTVYLQMNSLKPEDTAVYYCNRRTGSYGRTPVWKGEYYYWGQGTQVTVSS | high polyreactivity |
| QVQLVESGGGLVQAGGSLRLSCAASGLTIWRYAMGWYRQAPGKEREFVATISQNGGRTYYADSVKGRFTISRDNAKNTVYLQMNSLKPEVNAVYYCAADDWRWGYDYWGQGTQVTVSS | high polyreactivity |

Please go through the list and note polyreactivity (PSR sort gate) for each sequence.
1. QVQLVESGGGLVQAGGSLRLSCAASGGILNYYAMGWYRQAPGKERELVAAITGIGGSTSYADSVKGRFTISRDNAKNTVYLQMNSLKPEDTAVYYCAAEATSSYYVPDYDYWGQGTQVTVSS
2. QVQLVESGGGLVQAGGSLRLSCAASGRTFGYYAMGWYRQAPGKERELVAAISSGGGTYYADSVKGRFTISRDNAKNTVYLLMNSLKPEDTAVYYCAATGWVYWGQFDYWGQGTQVTVSS
3. QVQLVESGGGLVQAGGSLRLTCAASGIIFCDYVMGWYRQEPGKESELVAAISASGGRTYYADSVKGRFTISRDNAKNTVYLQMTSLKPEDTAVYYCNKRYRNRYSYSEGDYWGQGTQLTVSS

["low polyreactivity", "low polyreactivity", "high polyreactivity"]

Please go through the list and note polyreactivity (PSR sort gate) for each sequence.
1. QVQLVESGGGLVQAGGSLRLSCAASGRIFLQNAMGWYRQAPWKERELVASISSSGGTTYYADSVKGRFTISRDNAKNTVYLQMNSLKPEDTAVYYCAADYGHYSTPMDYWGQGTQVTVSS
2. QVQLVESGGGLVQAGGSHRLSCAASGIILYHYAMGWYRQAPGKERELVATITSGGSTNYADSVKGRFTISRDYAKNTVDLQMNSLKPEDTAVYYCAAVPSRYGRYRYYYWGQGTQVTVSS
3. QVQLVESGGGLVHAGGSLRLSCAASGSIFCTNVMGWYRQAPGKERELVAAISYSDGSTYYADSVKGRFTISRDNAKNTVYLQMNILKPEDSAVYYCADYLYYYWGGYDYWGQGTQVTVSS

1. low polyreactivity
2. high polyreactivity
3. low polyreactivity

---

- ASSAY DETAILS: yeast display, Sf9 membrane polyspecificity reagent, FACS + sequencing; frameworks hold sequencing errors
PROPERTY: polyreactivity (PSR sort gate)

Example sequences with recorded polyreactivity (PSR sort gate):
| ORDERED RESIDUES | RECORDED VALUE |
| --- | --- |
| QVQLVESGGGLVQAGGSLRLSCAASGNIFYQYAMGWYRQAPGKEREFVAAISISGTSTYADSVKGRFTISRDNAKNTVDLQLNSLKPEDTEVYWGQGTQVTVSS | low polyreactivity |
| QVQLVESGGVLVQAGGSLRLSCAASGSIFGSYGMGWYRQAPGKERELVAAIRVSGGSTYYADSVKGRFTISRDNAKNTVYLQMNSLKPEDTAVYYCAARARSTPRKYYYTRGYWGQGTQVTVSS | high polyreactivity |
| QVQLVESGGGLVQAGGSLRLSCAASGRTFDSYTMGWYRQAPGKERELVARIRWSGGSTYYADSVKGRFTISRDNAKNTVYLQMNSLKPEDTAVYYCAVYQYVGYTMDYWGQGTQVTVSS | low polyreactivity |
| LVQLVESGGGLVQAGGSLRLSCAASGSIFPPYAMGWYRQAPGKERELVAARSNGGSTNYAYAVKGRFTISRDNPNYTVYLQMNSLIPEDTAVYYCVARQYYLGWFPYWRIFDYWGQGTQVTVSS | high polyreactivity |
| QVQLQESGGGLVQAGGSLRLSCAASGTISPLPAMGWYRQAPGKEREFVPGIDTGAITNYADSVKGRFTISRDNAKNTVYLQMNSLKPEDTAVYYCAVFPAAYDYYERYYTYWGQGTQVTVSS | low polyreactivity |
| QVQLVESGGGLVQAGGSLRLSCAASGSTFEYYAMGWYRQAPGKERELVAGISTGGSTNYADSVKGRFTISRDNAKNTVYVQMNSLKTEDSAVYYCKRDWALYVFCRHYHAYYSWGQRTQVTVSS | low polyreactivity |
| QVQLVESGAGLVQAGGSLRLSCAASGSTFWWNTMGWYRQAPGKERELVAAITTGGGTYYADSVKGRFTISRDNAKNTVYLQMNSLKPEDTAVYYCAATVRSYGWYAYHYSTYGYWGQGTQVTVSS | low polyreactivity |
| QVQLVESGGGLVQSGGSLRLSCAASGRTFNANVMGWYRPAPGKERELVAAITYSGGSTYYADSVKGRFTISRDNAKNTVYLQMNSLKPEDTAVYYCAADYVYTFYYWGQGTQVTVSS | low polyreactivity |
| QVKLVESGGVLVQAGGSLRLSCAASGRIFGTYAMGWYRQAPGKERELVASISYSDGSTYADSVKGRFTISRDNAKNTVYLQMNSLKPEDTAVYYCAADVYYYAQCEDGYWGQGTQVTVSS | low polyreactivity |
| QVQHVESGGDLVQAGGSLRLSCAASGSTSFHNAMGWDIQAPGKEREFVAAMSGSGDRTNYADSVKGRFTISRDNAKNTVYLQMNSLKPEDTAVYYCAARGQPGRRTSSGFFSGGYWGQGTQVTVSS | high polyreactivity |

Please go through the list and note polyreactivity (PSR sort gate) for each sequence.
1. QVQLVESGGGLVQAGGSLRLSCAASGFISSDYAMGWYRQAPGKEREFVAGISRGGGSTYYADSVKGRFTISRDHAKNTVYLQMISLKPEDTAVYYCNARTSLRKYQYYYWGQGTQVTVSS
2. QVQLVESGGGLVQAGGSLRLSCAASGRTFVWNAMGWYRQAPGKERELVAAISSSGTSTYYADSVKGRFTISRDNAKNTVYLQMNSLKPEDTAVYYCAKDLLYQPTIRDYWGQGTQVTVSS
3. QVQLVESGGGLVLAGGSLRLSCAASGGIYTTYAMGWYREAPGKERELVAAISRSGGSTYYADSVKGRFTISRDNAKNTVYLQMNSLKPDDTAVYYCAADQYMCRAWRGRVYYWGQGTQVTVSS
4. QVQLVESGGGLVQAGGSLRLSCAASGLIIYRYGMGWYRQAPGKERELVAAISYSGSSSYYADSVKGRFTISRDNAKNTVYLQMNSLKPEDTAVYYCAARHGPRSEAMYYWGQGTQVTVSS
5. QGQLVESGGGLVQAGGSLSLSCAASGSIFPVYAMGWYRQAPGTEREFVARIRFSGGRTYYADSVQGRFTISRDNAKNTVYLQMNSLKPEDTAVYYCAKAQYRGRYGYWGQGTQVTVSS
6. QVQLVESGGGLVQAGGSLRLSCAASGITFYRYAMGWYRQEPGKERELVAAISRSGGSTYYADSVKGRFTISRDNAKNTVYLQMNSLKPQDTEVYYCADYILGNRVGYDYWGQGTQVTVSS
7. QVQLVESGGGLVQAGGSLRLSCAASGFTFTRYAMGWYRQAPGKERELVAAISSCGDTYYADSVKGRFTISRDNAKNTVYLQMNSLKPEDTAVYYCAADQSSLDYGNDYWGQGTQVTVSS
8. QVQLVESGGGLVQAGGSLRLSCAASGLIFYINAMGWYRQAPGKERELVAAISSGGSTNYADSVKGRFTISRDNAKNTVYLQMNSLKPEDTAVYYCARDAYLPRIADGDGRYELVDYWGQGTQVTVSS

high polyreactivity
low polyreactivity
high polyreactivity
high polyreactivity
high polyreactivity
high polyreactivity
low polyreactivity
low polyreactivity

Please go through the list and note polyreactivity (PSR sort gate) for each sequence.
1. QVQLVESGGGLVQAGGSLRLSCAASGSTFPYYAMGWYRQAPGKERELVAAISSSGGSTYYADSVKGRFTISRDNANNTVYLQMNSLKPEDTAVYYCATSSLYRYWHRYDYWGQGTQVTVSS
2. QVQLVESGGGLVQAGGSLRLSCAASGSTFLDYDMGWYRQAPGKERELVATINSVGSTYYADSVKGRFTISRDNAKNTVYLQMKSLKPEDTAVYYCAASQEPGWYPDVWWEYDYWGQGTQVTVSS

["high polyreactivity", "low polyreactivity"]

Requested read-out: polyreactivity (PSR sort gate). Entry: QVQLVESGGGLVQAGGSLRLSCAASGSIFPTNAMGWYRQAPGKERELVAAISSRDGSTYYADSVKGRFTISRDNAKNTVYLQMNSLKPEDTAVYYCNTDHDPIYFYITRHDSWGQGTQVTVSS
low polyreactivity
